# test.system: Laminin 421/521
# experiment.description: phage display, NGS count
parameter: Count
Field format: numeric only.

// worked examples, Count included
{"binder": "EYVKFSHSPRTY", "Count": 31}
{"binder": "CKSPAIKGC", "Count": 29}
{"binder": "GLLDWGSLQGGN", "Count": 30}

Which Count value belongs to `EDRMMTYRYTST` ? 29
